Where do these numbers come from? They come from patent US20120295982A1.

TEST_PROTOCOL: Phase I open-label single-dose crossover oral bioavailability / PK test of bedoradrine sulfate in healthy volunteers
Format: in vivo, human
TEST_PARAMETERS: human two, in vivo, iv, 300 ug, Tmax, individual subject
Counter-ions that a name gives are not always drawn.
PROPERTY_LABEL: Tmax (min)

In [3]: df
Out[3]:
                                   compound  reported_result
0  CN(C)C(=O)COc1ccc2c(c1)C[C@@H](NC[C@H](O)c1ccc(O)c(CCO)c1)CC2 [MN-221, bedoradrine sulfate]               15

* * *

TEST_PROTOCOL: Oral bioavailability in rabbits
TEST_PARAMETERS: rabbit, in vivo, read-out: Oral F %
Structures can show the parent of a compound that is named as a salt.
PROPERTY_LABEL: bioavailability

>>> print(df.to_string())
                                   compound  reported_result
0  CN(C)C(=O)COc1ccc2c(c1)C[C@@H](NC[C@H](O)c1ccc(O)c(CCO)c1)CC2 [MN-221, bedoradrine sulfate]             ≤ 3%

* * *

TEST_PROTOCOL: Phase I open-label single-dose crossover oral bioavailability / PK test of bedoradrine sulfate in healthy volunteers
Format: in vivo, human
TEST_PARAMETERS: both sexes, human, in vivo, po, 600 ug, Cmax, mean
Counter-ions that a name gives are not always drawn.
PROPERTY_LABEL: Cmax (ng/mL)

                                   compound  reported_result
0  CN(C)C(=O)COc1ccc2c(c1)C[C@@H](NC[C@H](O)c1ccc(O)c(CCO)c1)CC2 [MN-221, bedoradrine sulfate]            0.305

* * *

TEST_PROTOCOL: Phase I open-label single-dose crossover oral bioavailability / PK test of bedoradrine sulfate in healthy volunteers
Format: in vivo, human
TEST_PARAMETERS: both sexes, human, in vivo, iv, 300 ug, Vss, mean
Counter-ions that a name gives are not always drawn.
PROPERTY_LABEL: Vd (L)

In [3]: df
Out[3]:
                                   molecule  reported_result
0  CN(C)C(=O)COc1ccc2c(c1)C[C@@H](NC[C@H](O)c1ccc(O)c(CCO)c1)CC2 [MN-221, bedoradrine sulfate]              222

* * *

TEST_PROTOCOL: Phase I open-label single-dose crossover oral bioavailability / PK test of bedoradrine sulfate in healthy volunteers
Type: in vivo, human
TEST_PARAMETERS: male, human, in vivo, iv, 300 ug, Cmax mean
Structures can show the parent of a compound that is named as a salt.
PROPERTY_LABEL: Cmax

                                   compound  reported_result
0  CN(C)C(=O)COc1ccc2c(c1)C[C@@H](NC[C@H](O)c1ccc(O)c(CCO)c1)CC2 [MN-221, bedoradrine sulfate]       8.42 ng/mL

* * *

TEST_PROTOCOL: Phase I open-label single-dose crossover oral bioavailability / PK test of bedoradrine sulfate in healthy volunteers
Format: in vivo, human
TEST_PARAMETERS: both sexes, human, in vivo, iv, 300 ug, t½, median
Structures can show the parent of a compound that is named as a salt.
PROPERTY_LABEL: half-life (h)

>>> df
                                   compound  property_label  reading_unit  reported_result
0  CN(C)C(=O)COc1ccc2c(c1)C[C@@H](NC[C@H](O)c1ccc(O)c(CCO)c1)CC2 [MN-221, bedoradrine sulfate]       half-life             h             12.5
